system: Mus musculus; experiment: Cmax in CD1 mouse plasma at 50 mg/kg, po measured over 24 hrs post dose by LC/MS/MS analysis; type: ADME, organism-based; design: dose 50 mg/kg, route oral; details: in vivo
reported_metric: Cmax (nM)
Respond numerically; units are nM and should not be typed.

{"smi": "NS(=O)(=O)c1ccc(Cc2c(-c3cccc(-c4ccccc4)c3)nn(-c3nc(C(=O)O)cs3)c2C2CC2)cc1", "target_or_system": "Mus musculus", "Cmax [nM]": 1200}

Shifting focus to the compound that follows.
Query: Please look at this compound and report its Cmax: NS(=O)(=O)c1ccc(Cc2c(-c3cccc(-c4ccccc4)c3)nn(-c3nc(C(=O)O)cs3)c2CC2CC2)cc1
Result: 1780
